- Assay Target: UniProtKB P00918
The entries below come with measured Ki values attached.

1. O=C(O)c1ccc(N2C(=O)c3cc(Cl)c(Cl)cc3C2=O)cc1 : > 1 µM
2. O=C(O)c1ccc(N2C(=O)c3nccnc3C2=O)cc1 : > 1 µM
3. Cc1ccc2c(c1)C(=O)N(Cc1ccc(S(N)(=O)=O)cc1)C2=O : 0.0262 µM
4. CC(C)(C)c1ccc2c(c1)C(=O)N(c1ccc(C(=O)O)cc1)C2=O : > 1 µM

Attention now shifts to the item below.
Consider O=C(O)c1ccc(N2C(=O)c3cccc4cccc(c34)C2=O)cc1 . Its measured Ki is > 1 µM

----------
- Assay Target: Carbonic anhydrase 9 (Homo sapiens, UniProt Q16790)
One threshold, 5 nM, splits the recorded Ki values: lower ones are fulfilled, equal or higher ones are not fulfilled.

1. CC(C)(C)c1ccc2c(c1)C(=O)N(c1ccc(C(=O)O)cc1)C2=O : not fulfilled
2. O=C(O)c1ccc(N2C(=O)c3nccnc3C2=O)cc1 : not fulfilled
3. CC(C)(C)c1ccc2c(c1)C(=O)N(c1ccc(S(N)(=O)=O)cc1)C2=O : fulfilled
4. NS(=O)(=O)c1ccc(CN2C(=O)CCC2=O)cc1 : not fulfilled
5. NS(=O)(=O)c1ccc(N2C(=O)c3ccccc3C2=O)cc1 : fulfilled
6. O=C(O)c1ccc(N2C(=O)c3cc(Cl)c(Cl)cc3C2=O)cc1 : not fulfilled

Take the compound Cc1ccc2c(c1)C(=O)N(Cc1ccc(S(N)(=O)=O)cc1)C2=O and say whether its Ki is less than 5 nM.
not fulfilled

----------
For reference, Ki measured on Carbonic anhydrase 1 (Homo sapiens):
Give just the number in nM; leave the unit off.

1) O=C(O)c1ccc(N2C(=O)c3ccccc3C2=O)cc1 : 30.2

Attention now shifts to the item below.
Consider NS(=O)(=O)c1ccc(N2C(=O)[C@H]3CC=CC[C@H]3C2=O)cc1 . Its measured Ki is 31.2

----------
- Assay Target: Carbonic anhydrase 12 (Homo sapiens)
- Sequence (O43570 whole entry): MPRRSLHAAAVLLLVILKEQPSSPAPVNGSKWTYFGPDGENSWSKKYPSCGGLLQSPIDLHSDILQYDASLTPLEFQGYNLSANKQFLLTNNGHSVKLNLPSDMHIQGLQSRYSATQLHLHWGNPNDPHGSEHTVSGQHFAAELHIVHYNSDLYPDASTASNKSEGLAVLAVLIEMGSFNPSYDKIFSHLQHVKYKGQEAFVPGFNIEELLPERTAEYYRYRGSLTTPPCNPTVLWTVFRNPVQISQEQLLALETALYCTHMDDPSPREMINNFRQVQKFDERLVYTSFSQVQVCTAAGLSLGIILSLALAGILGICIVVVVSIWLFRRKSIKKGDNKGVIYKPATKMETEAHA
Experimental Endpoint: Ki (nM)
Give just the number in nM; leave the unit off.

Tested system Carbonic anhydrase 12 (Homo sapiens); Ki recorded for O=C(O)c1ccc(N2C(=O)c3cccc4cccc(c34)C2=O)cc1 was 1.2

----------
- Assay Target: Carbonic anhydrase 9 (Homo sapiens, UniProt Q16790)
The entries below come with measured Ki values attached.
Give just the number in nM; leave the unit off.

1. O=C(O)c1ccc(N2C(=O)c3ccccc3C2=O)cc1 : 4.9

Tested system Carbonic anhydrase 9 (Homo sapiens, UniProt Q16790); Ki recorded for NS(=O)(=O)c1ccc(CN2C(=O)[C@H]3CC=CC[C@H]3C2=O)cc1 was 2.6

Tested system Carbonic anhydrase 9 (Homo sapiens, UniProt Q16790); Ki recorded for NS(=O)(=O)c1ccc(N2C(=O)c3nccnc3C2=O)cc1 was 2.9

Tested system Carbonic anhydrase 9 (Homo sapiens, UniProt Q16790); Ki recorded for NS(=O)(=O)c1ccc(N2C(=O)c3cccc4cccc(c34)C2=O)cc1 was 4.9

Tested system Carbonic anhydrase 9 (Homo sapiens, UniProt Q16790); Ki recorded for NS(=O)(=O)c1ccc(CN2C(=O)c3c(Cl)c(Cl)c(Cl)c(Cl)c3C2=O)cc1 was 3.1

Tested system Carbonic anhydrase 9 (Homo sapiens, UniProt Q16790); Ki recorded for O=C(O)c1ccc(N2C(=O)c3cccc4cccc(c34)C2=O)cc1 was 5.9

----------
For reference, Ki measured on Carbonic anhydrase 1 (Homo sapiens, UniProt P00915):

1. O=C(O)c1ccc(N2C(=O)c3nccnc3C2=O)cc1 : > 1 µM
2. O=C(O)c1ccc(N2C(=O)c3cccc4cccc(c34)C2=O)cc1 : > 1 µM

Attention now shifts to the item below.
Tested system Carbonic anhydrase 1 (Homo sapiens, UniProt P00915); Ki recorded for O=C(O)c1ccc(N2C(=O)c3ccc([N+](=O)[O-])cc3C2=O)cc1 was > 1 µM
